- Test system: chimeric Caspase-9 polypeptide
- Sequence (as listed by the source, change not shown): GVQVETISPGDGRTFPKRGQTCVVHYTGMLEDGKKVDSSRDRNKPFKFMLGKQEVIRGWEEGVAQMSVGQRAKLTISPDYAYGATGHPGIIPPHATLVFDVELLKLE
- assay_text: Caspase mutant classes and basal activity (Table 3)
- Format: cell-based, human
- assay_context: class heading of Table 3
readout: Basal Activity

F406L (protein) GFGDVGALESLRGNADLAYILSMEPCGHCLIINNVNFCRESGLRTRTGSNIDCEKLRRRFSSLHFMVEVKGDLTAKKMVLALLELAQQDHGALDCCVVVILSHGCQASHLQFPGAVYGTDGCPVSVEKIVNIFNGTSCPSLGGKPKLFFIQACGGEQKDHGFEVASTSPEDESPGSNPEPDATPFQEGLRTFDQLDAISSLPTPSDIFVSYSTFPGFVSWRDPKSGSWYVETLDDIFEQWAHSEDLQSLLLRVANAVSVKGIYKQMPGCFNLLRKKLFFKTS :: dead
S183A (protein) GFGDVGALESLRGNADLAYILSMEPCGHCLIINNVNFCRESGLRTRTGANIDCEKLRRRFSSLHFMVEVKGDLTAKKMVLALLELAQQDHGALDCCVVVILSHGCQASHLQFPGAVYGTDGCPVSVEKIVNIFNGTSCPSLGGKPKLFFIQACGGEQKDHGFEVASTSPEDESPGSNPEPDATPFQEGLRTFDQLDAISSLPTPSDIFVSYSTFPGFVSWRDPKSGSWYVETLDDIFEQWAHSEDLQSLLLRVANAVSVKGIYKQMPGCFNFLRKKLFFKTS :: Decreased
F406T (protein) GFGDVGALESLRGNADLAYILSMEPCGHCLIINNVNFCRESGLRTRTGSNIDCEKLRRRFSSLHFMVEVKGDLTAKKMVLALLELAQQDHGALDCCVVVILSHGCQASHLQFPGAVYGTDGCPVSVEKIVNIFNGTSCPSLGGKPKLFFIQACGGEQKDHGFEVASTSPEDESPGSNPEPDATPFQEGLRTFDQLDAISSLPTPSDIFVSYSTFPGFVSWRDPKSGSWYVETLDDIFEQWAHSEDLQSLLLRVANAVSVKGIYKQMPGCFNTLRKKLFFKTS :: Decreased
S195A (protein) GFGDVGALESLRGNADLAYILSMEPCGHCLIINNVNFCRESGLRTRTGSNIDCEKLRRRFASLHFMVEVKGDLTAKKMVLALLELAQQDHGALDCCVVVILSHGCQASHLQFPGAVYGTDGCPVSVEKIVNIFNGTSCPSLGGKPKLFFIQACGGEQKDHGFEVASTSPEDESPGSNPEPDATPFQEGLRTFDQLDAISSLPTPSDIFVSYSTFPGFVSWRDPKSGSWYVETLDDIFEQWAHSEDLQSLLLRVANAVSVKGIYKQMPGCFNFLRKKLFFKTS :: Decreased
